Assign protein stability index to each entry below.
B1: SMOC2 (parent)
chain: DCAGSPQKPLCASDGRTFLSRCEF

variants of: B1; assay: protein stability index of a GFP-peptide fusion (GPS, HEK-293T) (PSI 1-6); higher = more stable; conditions: c terminus: a fixed tail appended;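 further: lentivirally expressed fusions sorted by FACS into six bins by GFP to DsRed ratio, PSI derived from sequencing read proportions per bin multiplied by bin number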
One number for each entry.

Record excerpt, results attached:
{"biopolymer_sequence": "DCAGSPQKPTCASDGRTFLSRCEF [L10T]", "observed_value": 2.65}
{"biopolymer_sequence": "DCEGSPQKPLCASDGRTFLSRCEF [A3E]", "observed_value": 3.01}
{"biopolymer_sequence": "DCAGSPQKPLCASDGRWFLSRCEF [T17W]", "observed_value": 1.29}
{"biopolymer_sequence": "DCAGSPQKPLCASDGRTCLSRCEF [F18C]", "observed_value": 3.73}
{"biopolymer_sequence": "DCAGSPQKPLCASDGRIFLSRCEF [T17I]", "observed_value": 2.33}

Working through the 5 variants below one at a time, give protein stability index for each.
1. DCAGSPQKPLCASDGRTFLSRCVF [E23V]
2. DCAMSPQKPLCASDGRTFLSRCEF [G4M]
3. YCAGSPQKPLCASDGRTFLSRCEF [D1Y]
4. DCAGSPQKPLCAWDGRTFLSRCEF [S13W]
5. DCAGSPQKPLCASDGRTFLSRCSF [E23S]

**A:**
1: 1.73; 2: 2.32; 3: 1.72; 4: 2.09; 5: 2.74

Working through the 6 variants below one at a time, give protein stability index for each.
1. DSAGSPQKPLCASDGRTFLSRCEF [C2S]
2. DCAGSPQGPLCASDGRTFLSRCEF [K8G]
3. DCAGSPQKPLCTSDGRTFLSRCEF [A12T]
4. ACAGSPQKPLCASDGRTFLSRCEF [D1A]
5. DCAGSPQKPLCASDGGTFLSRCEF [R16G]
6. DCAGSPQKPLCASDGRTVLSRCEF [F18V]

**A:**
[2.18, 2.94, 3.32, 1.89, 3.4, 2.84]
